Hey, just so you know, these numbers are from paper PMC11434026.

Assay: Tissue distribution after single IP dose in CD-1 mice
Assay type: in vivo, mouse
Settings: female, CD-1, mouse, liver; 2 h after single IP 5 mg/kg; read-out: tissue concentration, liver

smiles_data | concentration at 2 h (ng/g)
O=c1c(O)ccccc1-c1ccc2ccccc2c1 | 1390

* * *

Test: Plasma pharmacokinetics after single IP dose in CD-1 mice
Type: in vivo, mouse
Details: female, CD-1, mouse, plasma, ip, 5 mg/kg, CD-1 mice, single IP 5 mg/kg, plasma; read-out: Cmax
property: Cmax (ng/mL)

smiles_data | result_units | measured_value
O=c1c(O)ccccc1-c1ccc2ccccc2c1 | ng/mL | 3040

* * *

Experiment: Plasma pharmacokinetics after single IP dose in CD-1 mice
Assay type: in vivo, mouse
Settings: female, CD-1, mouse, plasma, ip, 5 mg/kg, CD-1 mice, single IP 5 mg/kg, plasma; read-out: AUC0_∞

compound | AUC
O=c1c(O)ccccc1-c1ccc2ccccc2c1 [MO-OH-Nap, MO-OH-Nap tropolone] | 2860 ng·h/mL

* * *

Assay: Plasma pharmacokinetics after single IP dose in CD-1 mice
Format: in vivo, mouse
Details: female, mouse; CD-1 mice, single IP 5 mg/kg, plasma

smiles_data | half-life
O=c1c(O)ccccc1-c1ccc2ccccc2c1 | 17.7 h
